Entries and their inhibition at 0.3 µM
target: human His-PIM1 [2-313] (Homo sapiens, UniProt P11309); construct: purified human His-PIM1 [2-313] enzyme; His (N); purchased University of Dundee, Scotland; host or cells: baculovirus system; assay: PIM1 in-vitro mobility shift assay (Caliper LC3000, FL-Ahx-Bad phosphorylation); assay type: biochemical; details: 1.5 h; percent inhibition at 0.3 uM compound; read-out: PIM1 % I at 0.3 uM
Sequence (P11309 2-313): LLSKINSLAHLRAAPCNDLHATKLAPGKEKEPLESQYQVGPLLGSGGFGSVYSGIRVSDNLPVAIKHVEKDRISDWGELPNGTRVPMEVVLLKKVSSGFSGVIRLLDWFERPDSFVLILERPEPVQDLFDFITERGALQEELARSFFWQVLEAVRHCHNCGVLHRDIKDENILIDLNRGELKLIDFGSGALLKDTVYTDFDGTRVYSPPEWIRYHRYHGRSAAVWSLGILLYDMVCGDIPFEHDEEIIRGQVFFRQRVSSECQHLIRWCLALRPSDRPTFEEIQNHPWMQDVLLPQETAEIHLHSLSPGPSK
Counter-ions that a name gives are not always drawn.

COMPOUND: COc1cc(/C=C2\SC(=O)NC2=O)c(N2CCN(C(C)C)CC2)cc1OC
COMPARISON SIGN: =
inhibition at 0.3 µM / %: 92.3
//
COMPOUND: N[C@@H]1CCCN(c2c(/C=C3\SC(=O)NC3=O)cccc2OCC2CCCCC2)C1 [Example 122K, hydrochloride]
COMPARISON SIGN: >
inhibition at 0.3 µM / %: 95
//
COMPOUND: N[C@H]1CCN(c2ccc(C(F)(F)F)cc2/C=C2\SC(=O)NC2=O)C1 [Example 88, hydrochloride]
COMPARISON SIGN: >
inhibition at 0.3 µM / %: 95
//
COMPOUND: O=C1NC(=O)/C(=C/c2cc(C(F)(F)F)ccc2N2CCNCC2)S1 [Example 87, hydrochloride]
COMPARISON SIGN: >
inhibition at 0.3 µM / %: 95
//
COMPOUND: NCc1ccc(CN[C@@H]2CCCN(c3c(Cl)cccc3/C=C3\SC(=O)NC3=O)C2)cc1 [Example 122R, hydrochloride]
COMPARISON SIGN: >
inhibition at 0.3 µM / %: 95
//
COMPOUND: O=C1NC(=O)/C(=C/c2cccc(Cl)c2N2CCCNCC2)S1 [Example 122N, hydrochloride]
COMPARISON SIGN: >
inhibition at 0.3 µM / %: 95
//
COMPOUND: CN1CCC(N2CCN(c3c(Cl)cc(C(F)(F)F)cc3/C=C3\SC(=O)NC3=O)CC2)CC1
COMPARISON SIGN: >
inhibition at 0.3 µM / %: 95
//
COMPOUND: N[C@H]1CN(c2c(Cl)cccc2/C=C2\SC(=O)NC2=O)C[C@@H]1O [Example 122T, hydrochloride]
COMPARISON SIGN: >
inhibition at 0.3 µM / %: 95
//
COMPOUND: O=C1NC(=O)/C(=C/c2cc(C(F)(F)F)ccc2N2CCN(C(=O)C3CCCNC3)CC2)S1 (centres unmarked) [Example 92, hydrochloride]
COMPARISON SIGN: >
inhibition at 0.3 µM / %: 95
//
COMPOUND: Cc1noc(C2CCN(c3c(Cl)cc(C(F)(F)F)cc3/C=C3\SC(=O)NC3=O)CC2)n1
COMPARISON SIGN: =
inhibition at 0.3 µM / %: 6.9
//
COMPOUND: COc1cc(/C=C2\SC(=O)NC2=O)c(N2CCC(NCCCN)C2)cc1OC (centres unmarked)
COMPARISON SIGN: >
inhibition at 0.3 µM / %: 95
//
COMPOUND: CCOc1cccc(/C=C2\SC(=O)NC2=O)c1N1CC[C@H](N)C1 [Example 122Q, hydrochloride]
COMPARISON SIGN: >
inhibition at 0.3 µM / %: 95
//
COMPOUND: NCCCCC(=O)N1CCCN(c2ccccc2/C=C2\SC(=O)NC2=O)CC1 [Example 103, hydrochloride]
COMPARISON SIGN: >
inhibition at 0.3 µM / %: 95
//
COMPOUND: COc1cc(/C=C2\SC(=O)NC2=O)c(-c2ccncc2)cc1OC
COMPARISON SIGN: =
inhibition at 0.3 µM / %: 50.3
//
COMPOUND: O=C1NC(=O)/C(=C/c2ccc3[nH]ccc3c2)S1
COMPARISON SIGN: =
inhibition at 0.3 µM / %: 71.4
//
COMPOUND: COc1ccc(N2CCC(N(C)C)C2)c(/C=C2\SC(=O)NC2=O)c1 (centres unmarked)
COMPARISON SIGN: =
inhibition at 0.3 µM / %: 55.4
//
COMPOUND: COc1cc(/C=C2\SC(=O)NC2=O)c(N2CCC(N(C)C)CC2)cc1OC
COMPARISON SIGN: =
inhibition at 0.3 µM / %: 88.1
//
COMPOUND: O=C1NC(=O)/C(=C/c2n[nH]c3ccccc23)S1
COMPARISON SIGN: =
inhibition at 0.3 µM / %: 41.9
//
COMPOUND: O=C1NC(=O)/C(=C/c2ccccc2N2CCN(C(=O)C3CCCNC3)CC2)S1 (centres unmarked) [Example 116, hydrochloride]
COMPARISON SIGN: >
inhibition at 0.3 µM / %: 95
//
COMPOUND: NCCC(=O)N1CCN(c2ncccc2/C=C2\SC(=O)NC2=O)CC1 [Example 90, trifluoroacetate]
COMPARISON SIGN: =
inhibition at 0.3 µM / %: 78.2
//
COMPOUND: N[C@H]1CCN(c2cc(Cl)ccc2/C=C2\SC(=O)NC2=O)C1 [Example 85, hydrochloride]
COMPARISON SIGN: >
inhibition at 0.3 µM / %: 95
//
COMPOUND: COc1cccc(/C=C2\SC(=O)NC2=O)c1N1CC[C@H](N(C)C)C1
COMPARISON SIGN: >
inhibition at 0.3 µM / %: 95
//
COMPOUND: CNCCN[C@@H]1CCCN(c2c(Cl)cccc2/C=C2\SC(=O)NC2=O)C1 [Example 122S, hydrochloride]
COMPARISON SIGN: >
inhibition at 0.3 µM / %: 95
//
COMPOUND: COCCOc1cccc(/C=C2\SC(=O)NC2=O)c1N1CCC[C@@H](N)C1 [Example 122AA, hydrochloride]
COMPARISON SIGN: >
inhibition at 0.3 µM / %: 95
//
COMPOUND: COc1cc(/C=C2\SC(=O)NC2=O)c(N2CC[C@H](N)C2)cc1OC [Example 101, hydrochloride]
COMPARISON SIGN: >
inhibition at 0.3 µM / %: 95
//
COMPOUND: NS(=O)(=O)CCCC(=O)N[C@H]1CCN(c2c(Cl)cccc2/C=C2\SC(=O)NC2=O)C1
COMPARISON SIGN: =
inhibition at 0.3 µM / %: 85.9
//
COMPOUND: O=C1NC(=O)/C(=C/c2ccccc2N2CCCN(C(=O)C3CCCNC3)CC2)S1 (centres unmarked) [Example 102, hydrochloride]
COMPARISON SIGN: =
inhibition at 0.3 µM / %: 93.3
//
COMPOUND: O=C1NC(=O)/C(=C/c2ccc3cc[nH]c3c2)S1 [Example 79, trifluoroacetate]
COMPARISON SIGN: =
inhibition at 0.3 µM / %: 90
//
COMPOUND: Cn1ccc2ccc(/C=C3\SC(=O)NC3=O)cc21
COMPARISON SIGN: >
inhibition at 0.3 µM / %: 95
//
COMPOUND: COc1cc(/C=C2\SC(=O)NC2=O)c(N2CCC(O)C2)cc1OC (centres unmarked)
COMPARISON SIGN: =
inhibition at 0.3 µM / %: 40.1
//
COMPOUND: CC(C)N1CCN(c2ccccc2/C=C2\SC(=O)NC2=O)CC1
COMPARISON SIGN: =
inhibition at 0.3 µM / %: 93.7
//
COMPOUND: C[C@@H]1CN(c2c(Cl)cccc2/C=C2\SC(=O)NC2=O)C[C@H](C)N1
COMPARISON SIGN: =
inhibition at 0.3 µM / %: 89.7
